- TESTED_SYSTEM: Fyn (UniProt P06241)
- Sequence (P06241 whole entry, looked up): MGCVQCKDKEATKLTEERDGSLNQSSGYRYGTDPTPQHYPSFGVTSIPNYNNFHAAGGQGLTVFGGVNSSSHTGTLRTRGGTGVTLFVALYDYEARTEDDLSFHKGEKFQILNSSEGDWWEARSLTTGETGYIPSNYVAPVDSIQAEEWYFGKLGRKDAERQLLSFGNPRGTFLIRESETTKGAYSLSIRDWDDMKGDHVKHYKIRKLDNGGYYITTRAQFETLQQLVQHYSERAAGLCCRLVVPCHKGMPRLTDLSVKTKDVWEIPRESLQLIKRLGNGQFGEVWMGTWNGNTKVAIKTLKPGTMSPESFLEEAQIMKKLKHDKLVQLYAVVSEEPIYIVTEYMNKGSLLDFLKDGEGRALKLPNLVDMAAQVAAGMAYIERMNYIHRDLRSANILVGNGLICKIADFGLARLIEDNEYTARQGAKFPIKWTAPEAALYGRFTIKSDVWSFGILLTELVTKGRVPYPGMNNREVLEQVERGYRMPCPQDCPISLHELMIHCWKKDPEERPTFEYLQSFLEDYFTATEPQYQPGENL
- TEST: phosphorylation enrichment, bacterial display (enrichment ratio); higher = better substrate or ligand; peptides without Tyr show the background
Label 1 when phosphorylation enrichment is at or above 0.5; anything below gets -1.

The examples below pair each entry with its known result.
INSERT INTO results (query_sequence, discrete_label) VALUES
  ('TMKSRYMELFD [BBS2_Y644_YF]', -1),
  ('TSFSGYRFHRH [NKAPL_Y94_YF]', -1),
  ('KWRGQYDVAIR [BTK_Y425_K430R]', -1),
  ('GEDDVYDSVPG [FGR_opt_2018]', 1),
  ('GRVFVYRLSEQ [ITGAE_Y551_YF]', 1);

--- query ---
-- ask Hi team, for VFSTDYFRVGG [NTRK2_Y706_YF] , is the recorded phosphorylation enrichment at or above 0.5?
-- reply -1

----------
- TESTED_SYSTEM: Jak2 (UniProt O60674)
- Sequence (O60674 whole entry, looked up): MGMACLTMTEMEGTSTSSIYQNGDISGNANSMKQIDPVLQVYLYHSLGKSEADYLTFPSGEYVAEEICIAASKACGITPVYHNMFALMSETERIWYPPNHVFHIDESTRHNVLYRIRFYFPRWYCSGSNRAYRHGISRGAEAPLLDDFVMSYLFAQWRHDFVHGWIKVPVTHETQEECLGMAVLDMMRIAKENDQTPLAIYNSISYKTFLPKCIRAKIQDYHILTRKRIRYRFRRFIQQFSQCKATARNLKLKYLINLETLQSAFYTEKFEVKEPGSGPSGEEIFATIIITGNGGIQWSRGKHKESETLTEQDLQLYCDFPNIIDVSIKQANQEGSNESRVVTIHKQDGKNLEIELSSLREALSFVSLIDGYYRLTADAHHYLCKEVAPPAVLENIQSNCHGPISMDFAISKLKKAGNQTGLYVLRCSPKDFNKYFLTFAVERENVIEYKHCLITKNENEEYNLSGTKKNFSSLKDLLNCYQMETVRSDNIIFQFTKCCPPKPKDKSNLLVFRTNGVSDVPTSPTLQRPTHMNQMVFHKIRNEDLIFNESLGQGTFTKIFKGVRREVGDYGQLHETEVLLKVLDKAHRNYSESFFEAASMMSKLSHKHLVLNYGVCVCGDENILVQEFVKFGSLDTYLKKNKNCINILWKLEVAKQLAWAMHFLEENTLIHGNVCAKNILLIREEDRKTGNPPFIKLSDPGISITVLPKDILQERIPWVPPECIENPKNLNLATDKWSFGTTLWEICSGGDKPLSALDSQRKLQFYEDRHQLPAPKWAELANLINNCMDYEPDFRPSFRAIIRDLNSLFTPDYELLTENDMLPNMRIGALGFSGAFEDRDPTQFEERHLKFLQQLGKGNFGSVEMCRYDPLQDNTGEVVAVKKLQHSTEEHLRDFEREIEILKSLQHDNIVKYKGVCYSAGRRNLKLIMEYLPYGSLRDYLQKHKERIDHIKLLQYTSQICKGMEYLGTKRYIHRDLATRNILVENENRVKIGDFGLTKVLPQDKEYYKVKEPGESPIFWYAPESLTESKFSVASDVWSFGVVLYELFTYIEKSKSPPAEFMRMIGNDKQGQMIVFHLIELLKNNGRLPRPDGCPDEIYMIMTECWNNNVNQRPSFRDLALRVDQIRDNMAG
- TEST: phosphorylation enrichment, bacterial display (enrichment ratio); higher = better substrate or ligand; peptides without Tyr show the background
We begin with a simple list: items and their reported phosphorylation enrichment.

Below are worked cases with known answers.
INSERT INTO measurements (query_sequence, result) VALUES
  ('PSPMPYACCQM [FOXL2_Y215_S217C]', 0.516),
  ('KVPAIYGVGTR [CPS1_Y162_D165G]', 0.562),
  ('TEAEPYYRSLR [NPHS1_Y1138]', 0.809),
  ('SGRRRYTIAAL [TTR_Y125_P122R]', 0.51),
  ('RIAFQYGVTDL [MYBPC3_Y340]', 1.47);

Entry MKSIKYMDKEI [CCDC60_Y41] ; phosphorylation enrichment = 0.603

Entry SLGKGYSDGGC [MC4R_Y35] ; phosphorylation enrichment = 0.719

Entry KIVFVYVKKRS [DNAI2_Y7_E2K_YF] ; phosphorylation enrichment = 0.925

----------
- TESTED_SYSTEM: c-Src SH2
- TEST: SH2 binding enrichment of the phosphorylated peptide, bacterial display (enrichment ratio); higher = better substrate or ligand; peptides without Tyr show the background
VALUE_KIND: SH2 binding enrichment

Below are worked cases with known answers.
INSERT INTO results (query_sequence, value_kind, result) VALUES
  ('RVLHNYLVWCV [ECEL1_Y400_R404C]', 'SH2 binding enrichment', 0.643),
  ('LRGEDYGFSVD [PRKCI_Y430]', 'SH2 binding enrichment', 0.42),
  ('RELSWYRGQRP [HESX1_Y106_R109Q]', 'SH2 binding enrichment', 0.597);

Now, please, on to the next sequence.
Entry PGLKGYPGLSG [COL4A2_Y306_R304K] ; SH2 binding enrichment = 0.431

----------
- TESTED_SYSTEM: Jak2 (UniProt O60674)
- TEST: phosphorylation enrichment, bacterial display (enrichment ratio); higher = better substrate or ligand; peptides without Tyr show the background
Binning of phosphorylation enrichment into classes: low bracket (below 0.8), middle bracket (0.8 to below 1), high bracket (1 or more)

The examples below pair each entry with its known result.
INSERT INTO results (query_sequence, discrete_label) VALUES
  ('RPFSPYIIRGM [LRP5_Y1531_R1529S_YF]', 'middle bracket'),
  ('CNPLRYPVLMS [OR2T1_Y182]', 'low bracket'),
  ('VHNLDYFKKTT [FGFR3_Y647_YF]', 'middle bracket'),
  ('GFFDLYGGEKF [PTPN11_Y66_D61G_YF]', 'middle bracket'),
  ('FPPDGYSRHFE [CTNND1_Y213_YF]', 'low bracket');

-- ask For this sequence, which bin applies? TEAGNYKLCFD [TMED1_Y103_D102N]
-- reply high bracket

-- ask For this sequence, which bin applies? CTTLHYNFMCN [TP53_Y234_I232L_YF]
-- reply low bracket

-- ask For this sequence, which bin applies? RCLKDYGEFEV [GINS1_Y156]
-- reply high bracket

-- ask For this sequence, which bin applies? SNPAFYVLEGV [INPPL1_Y987_N982S_YF]
-- reply low bracket

-- ask For this sequence, which bin applies? LAGRFYALKSM [CKB_Y174_YF]
-- reply high bracket

-- ask For this sequence, which bin applies? YDGGCYEQLFV [MC4R_Y41_S36Y]
-- reply high bracket

-- ask For this sequence, which bin applies? LSPNMYNSKFW [TARSL2_Y457_L461F]
-- reply high bracket

-- ask For this sequence, which bin applies? TDVSLYPSGGT [TENM4_Y399]
-- reply low bracket

-- ask For this sequence, which bin applies? GNHISYYQSDG [CACNA1C_Y1757_V1755I]
-- reply low bracket

-- ask For this sequence, which bin applies? TVSQPYSFIEF [SEC22B_Y110_R108Q]
-- reply middle bracket

-- ask For this sequence, which bin applies? QRIHDYFEHRF [HCN4_Y554_YF]
-- reply low bracket

-- ask For this sequence, which bin applies? NTGDFCDLFGG [PTPN11_Y63_Y63C_YF]
-- reply middle bracket

-- ask For this sequence, which bin applies? FRRITYFNWRH [PDE6B_Y556_H557Y_YF]
-- reply middle bracket

----------
- Test system: c-Abl (mouse)
- TEST: phosphorylation enrichment, bacterial display (enrichment ratio); higher = better substrate or ligand; peptides without Tyr show the background
Binning of phosphorylation enrichment into classes: low interval (below 0.6), middle interval (0.6 to below 0.8), high interval (0.8 or more)

The examples below pair each entry with its known result.
INSERT INTO assay_data (query_sequence, discrete_label) VALUES
  ('NAPNSYGRRLI [CDKN2A_Y44_P48L]', 'low interval'),
  ('GENTMYAQVFN [LY9_Y603]', 'high interval'),
  ('RIFDFYSARKT [STOX1_Y858_A863T_YF]', 'low interval'),
  ('GIVEEYQLPFF [BMPR1A_Y453_YF]', 'high interval'),
  ('KPPPTYESEEE [BRD4_Y599]', 'high interval');

-- ask For this sequence, which bin applies? LKMLVYLDMSK [LRRC7_Y234]
-- reply high interval

-- ask For this sequence, which bin applies? KWTVDYLSQVG [TYW5_Y48]
-- reply middle interval

-- ask For this sequence, which bin applies? DMGAQYAAASR [ARID1B_Y483_P488R]
-- reply middle interval

-- ask For this sequence, which bin applies? RGEAVYSRDCV [XPC_Y676]
-- reply middle interval

-- ask For this sequence, which bin applies? RQSTLYSFFPT [MSH6_Y8_K13T]
-- reply high interval

-- ask For this sequence, which bin applies? LFNQDYPIHCV [GATM_Y227_S231C_YF]
-- reply high interval

-- ask For this sequence, which bin applies? ESKAGYRVPRS [CLDN7_Y195]
-- reply middle interval

-- ask For this sequence, which bin applies? RAQIRYAQEHD [NSD1_Y1987_R1984Q]
-- reply high interval

-- ask For this sequence, which bin applies? KLQQWYREHRS [GPI_Y17]
-- reply low interval

-- ask For this sequence, which bin applies? LRGEDYGFSVD [PRKCI_Y430]
-- reply high interval

-- ask For this sequence, which bin applies? MDNQEYKDAFT [BRDT_Y331_K336T_YF]
-- reply middle interval

-- ask For this sequence, which bin applies? SGASGYSATST [CERT1_Y143]
-- reply low interval

-- ask For this sequence, which bin applies? SLDLSYFTTSS [EMD_Y181_P183T_YF]
-- reply middle interval

-- ask For this sequence, which bin applies? VRTGIYHGGEP [PIK3CA_Y361]
-- reply low interval

-- ask For this sequence, which bin applies? YDDGKYVYVVT [RPS6KA3_Y488]
-- reply middle interval

----------
- TESTED_SYSTEM: Grb2 SH2 (UniProt P62993)
- Sequence (P62993 whole entry, looked up): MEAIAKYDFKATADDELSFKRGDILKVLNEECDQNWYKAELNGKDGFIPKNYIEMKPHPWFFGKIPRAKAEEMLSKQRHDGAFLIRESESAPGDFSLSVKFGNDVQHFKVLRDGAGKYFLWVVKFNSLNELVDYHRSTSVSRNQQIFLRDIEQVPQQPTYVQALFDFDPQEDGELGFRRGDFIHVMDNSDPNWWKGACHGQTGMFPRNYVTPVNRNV
- TEST: SH2 binding enrichment of the phosphorylated peptide, bacterial display (enrichment ratio); higher = better substrate or ligand; peptides without Tyr show the background
We begin with a simple list: items and their reported SH2 binding enrichment.
Just the number, please, no unit attached.

Below are worked cases with known answers.
INSERT INTO measurements (query_sequence, numeric_readout) VALUES
  ('LEQQKYTVTID [IKBKB_Y199_V203I]', 0.826),
  ('HEKFLYFLPAS [DYNC2H1_Y346]', 0.925),
  ('AIIEEYLHLND [EIF4G1_Y1253]', 0.763),
  ('DVLVEYQGEGR [GNS_Y416]', 0.907),
  ('DFLEKYFKFGC [NNMT_Y24_S29C_YF]', 0.84);

Entry HAVYIYDICHV [TWNK_Y508_V507I] ; SH2 binding enrichment = 0.801

Entry SPPILYSFFLN [FCRL6_Y239_D244N_YF] ; SH2 binding enrichment = 1.29

Entry IQSAKYDMAED [TTC21B_Y1213] ; SH2 binding enrichment = 0.823

Entry FKDFFYCWNTF [AICDA_Y146_YF] ; SH2 binding enrichment = 0.696

Entry RSSKMYPKTRS [LPL_Y329_L330P] ; SH2 binding enrichment = 0.916
